# assay: APR_HepG2_MitoticArrest_24hr: Apredica 24-hour HepG2 Assay for Mitotic Arrest (AID 2282910)
# conditions: high-content imaging, actives raise or lower the signal
Calls of active or inactive are those of the source. How the source made its calls: active means hit-call score of the fitted dose curve at least 0.9, where 1 is the maximum; inactive means score below 0.9.
Possible outcomes: T for active, F for inactive

# compound, answer label
rows = [
    ("CC[C@H]1OC(=O)[C@H](C)[C@@H](O[C@H]2C[C@@](C)(OC)[C@@H](O)[C@H](C)O2)[C@H](C)[C@@H](O[C@@H]2O[C@H](C)C[C@H](N(C)C)[C@H]2O)[C@](C)(O)C[C@@H](C)C(=O)[C@H](C)[C@@H](O)[C@]1(C)O", "F"),
    ("O=C(CCCCCCCCc1cccnc1)N1CCC(C=C(c2ccccc2)c2ccccc2)CC1", "F"),
    ("O=c1n(CC2CO2)c(=O)n(CC2CO2)c(=O)n1CC1CO1 (stereo not given)", "T"),
    ("Cc1c(-c2cccnc2)c2ccccc2n1CCCCC(=O)O", "F"),
    ("CC(C)=CCCC(C)CCO (stereo not given)", "F"),
    ("C[C@](N)(Cc1ccc(O)c(O)c1)C(=O)O", "F"),
    ("COCCOc1cc2cc(C(=O)NC3CCN(C(C)C)CC3)n(CC(=O)Nc3ccc(Cl)cn3)c2cn1", "T"),
    ("CCOC(=O)CC(CC(=O)OCC)(OC(C)=O)C(=O)OCC", "F"),
    ("CCN(C(=O)c1cc(C)cc(OC[C@H](C)Nc2ccncc2)c1)C(C)C", "F"),
    ("CCCCCCc1ccc(O)cc1O", "T"),
]
